Test system: MCF-7
Test: viability inhibition at highest dose (% inhibition); higher = more growth inhibition
Conditions: 4-OH-tamoxifen in medium 0 µM; 72 h
result_type: viability inhibition at highest dose

Item Nc1cccc2c1CN(C1CCC(=O)NC1=O)C2=O (centres undefined) [Lenalidomide] (drug 10000 nM) was tested on MCF-7; the reported viability inhibition at highest dose is -4.99

Item Cc1[nH]c2ccccc2c1CCNCc1ccc(/C=C/C(=O)NO)cc1 [Panobinostat] (drug 1000 nM) was tested on MCF-7; the reported viability inhibition at highest dose is 89.4

Item COc1cc(CCc2cc(NC(=O)c3ccc(N4CC(C)NC(C)C4)cc3)n[nH]2)cc(OC)c1 (centres undefined) [AZD4547] (drug 1000 nM) was tested on MCF-7; the reported viability inhibition at highest dose is -4.05

Item CN1CCN(c2nc(C3=C(c4c[nH]c5ccccc45)C(=O)NC3=O)c3ccccc3n2)CC1 [Sotrastaurin] (drug 10000 nM) was tested on MCF-7; the reported viability inhibition at highest dose is 21.3

Taken from the supplement of paper PMC4932681.
